This collection of values is drawn from PubChem BioAssay (NCATS).

Assay comment: qHTS assay for small molecule agonists of the antioxidant response element (ARE) signaling pathway measured by Nrf2-dependant transcriptional activity (AID 720636);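 further: HepG2 cells with an ARE-driven luciferase reporter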
Settings: ARE-luc HepG2, Nrf2 luciferase reporter, 16 h; series mostly up to 92.4 µM
Results filed as inconclusive are left out. Activity calls are given as the source filed them. The call rests on the fitted dose curve; in most records, active means well fitted activation curve with a large enough effect in the repeat runs; inconclusive means weak or mixed curves; inactive means flat fitted curve, though single readings scatter.
Quantity kind: outcome

>>> result_value("Cc1cc(=O)n(-c2ccccc2)n1C")
"inactive"
>>> result_value("CC(O)(P(=O)(O)O)P(=O)(O)O")
"inactive"
>>> result_value("CC(=O)Oc1ccc(C(c2ccc(OC(C)=O)cc2)c2ccccn2)cc1")
"inactive"

====

Assay comment: qHTS of pediatric cancer cell lines to identify multiple opportunities for drug repurposing: Confirmatory screen for Rh18 cells (AID 1347125);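 further: cells exposed to compound for 48 h; nearly all actives have a fitted effect of over 55% in size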
Settings: Rh18 rhabdomyosarcoma cells, viability; series mostly up to 45.9 µM
Results filed as inconclusive are left out. The source made the active and inactive calls. The call rests on the fitted dose curve; in most records, active means well fitted cell-killing curve with a large enough effect; inconclusive means small, poorly fitted or top-dose-only effect, or effect the other way; inactive means flat fitted curve, though single readings scatter.
Just give me one of these, please: t for active, f for inactive

Check the results log: what was the call for "CC(=O)O[C@]1(C(C)=O)CC[C@H]2[C@@H]3C[C@H](C)C4=CC(=O)CC[C@]4(C)[C@H]3CC[C@@]21C" ? f

Check the results log: what was the call for "CCOc1ccc2nc3cc(N)ccc3c(N)c2c1" ? f

Check the results log: what was the call for "COCc1c(C(C)C)nc(C(C)C)c(/C=C/[C@@H](O)C[C@@H](O)CC(=O)O)c1-c1ccc(F)cc1" ? t

Check the results log: what was the call for "CN(C)C(=S)SC(=S)N(C)C" ? t

Check the results log: what was the call for "C[C@]12CCC(=O)C=C1CC[C@H]1[C@@H]3CC[C@](O)(C(=O)CO)[C@@]3(C)C[C@H](O)[C@@]12F" ? f

Check the results log: what was the call for "C=C1C[C@H]2[C@@H]3C=C(C)C4=CC(=O)CC[C@]4(C)[C@H]3CC[C@]2(C)[C@@]1(OC(C)=O)C(C)=O" ? f

Check the results log: what was the call for "CCCCC(=O)O[C@]1(C(=O)CO)CC[C@H]2[C@@H]3CCC4=CC(=O)CC[C@]4(C)[C@H]3[C@@H](O)C[C@@]21C" ? f

Check the results log: what was the call for "C[C@@H]1CN(CCCn2c3ccccc3c3ccccc32)C[C@H](C)N1" ? t

Check the results log: what was the call for "CC1(C)O[C@@H]2C[C@H]3[C@@H]4CCC5=CC(=O)CC[C@]5(C)[C@@]4(F)[C@@H](O)C[C@]3(C)[C@]2(C(=O)CCl)O1" ? f

Check the results log: what was the call for "CC(=O)[C@H]1CC[C@H]2[C@@H]3C[C@H](C)C4=CC(=O)CC[C@]4(C)[C@H]3[C@@H](O)C[C@]12C" ? f

Check the results log: what was the call for "C[C@]12C=CC(=O)C=C1CC[C@@H]1[C@@H]2[C@@H](O)C[C@@]2(C)[C@H]1CC[C@]2(O)C(=O)CO" ? f

Check the results log: what was the call for "C[C@@H]1C[C@H]2[C@@H]3CCC4=CC(=O)C=C[C@]4(C)[C@@]3(F)[C@@H](O)C[C@]2(C)[C@H]1C(=O)CO" ? f

Check the results log: what was the call for "CC(=O)Oc1ccc(C(c2ccc(OC(C)=O)cc2)c2ccccn2)cc1" ? f

Check the results log: what was the call for "COc1c(C)c2c(c(O)c1C/C=C(\C)CCC(=O)O)C(=O)OC2" ? t

Check the results log: what was the call for "CN(C)/N=N/c1nc[nH]c1C(N)=O" ? f

Check the results log: what was the call for "CC(=O)OCC(=O)[C@@]1(OC(C)=O)[C@@H](C)C[C@H]2[C@@H]3C[C@H](F)C4=CC(=O)C=C[C@]4(C)[C@@]3(F)[C@@H](O)C[C@@]21C" ? f

Check the results log: what was the call for "CC(=O)Oc1ccc2c(c1)CC[C@@H]1[C@@H]2CC[C@]2(C)[C@@H](O)CC[C@@H]12" ? f
